- Procedure details: Therapeutic index, ratio of CC50 for human MT4 cells to EC50 for HIV-1 NL4-3 infected in human MT4 cells
- Type: toxicity, cell-based
- Condition info: read-out: Ratio CC50/EC50
Reported endpoint: selectivity ratio

                                   molecule            result
0  CCC(C)Sc1nc(C(CC)c2c(F)cccc2Cl)c(C)c(=O)[nH]1 (stereo not drawn)              > 56
1  CCC(c1nc(SC(C)C)[nH]c(=O)c1C)c1c(F)cccc1Cl (stereo not drawn)              > 36
2  COC(c1nc(SC(C)C)[nH]c(=O)c1C)c1c(F)cccc1Cl (stereo not drawn)  140000 to 233000
